Every entry's value here was drawn from patent US8435980B2.

Field: Ki. Provide a value for each of the compounds that follow.
- MEASUREMENT_TARGET: Cdc7 (BEV coexpressed huCDC7/DBF4) (Homo sapiens)
- Construct: made in house; host or cells: BEV (baculovirus expression vector) co-expression; insect cells are implied but no cell line is named
- Sequence (O00311 whole entry): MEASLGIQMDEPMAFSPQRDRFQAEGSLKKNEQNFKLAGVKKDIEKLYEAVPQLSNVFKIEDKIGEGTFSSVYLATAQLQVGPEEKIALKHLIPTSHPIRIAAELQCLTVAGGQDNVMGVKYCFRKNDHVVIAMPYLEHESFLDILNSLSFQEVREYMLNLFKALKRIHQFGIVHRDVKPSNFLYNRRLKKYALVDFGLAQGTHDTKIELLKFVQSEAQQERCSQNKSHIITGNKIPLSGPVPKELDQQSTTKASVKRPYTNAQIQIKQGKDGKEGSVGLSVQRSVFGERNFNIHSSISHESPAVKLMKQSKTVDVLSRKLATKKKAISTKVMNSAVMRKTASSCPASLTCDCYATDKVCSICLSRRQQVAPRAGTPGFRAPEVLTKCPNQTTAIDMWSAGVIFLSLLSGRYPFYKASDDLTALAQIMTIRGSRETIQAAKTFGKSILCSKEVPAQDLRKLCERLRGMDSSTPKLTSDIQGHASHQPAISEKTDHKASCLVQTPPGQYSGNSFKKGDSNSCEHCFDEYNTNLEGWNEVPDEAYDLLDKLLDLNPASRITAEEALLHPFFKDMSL
- Sequence (Q9UBU7 whole entry partner): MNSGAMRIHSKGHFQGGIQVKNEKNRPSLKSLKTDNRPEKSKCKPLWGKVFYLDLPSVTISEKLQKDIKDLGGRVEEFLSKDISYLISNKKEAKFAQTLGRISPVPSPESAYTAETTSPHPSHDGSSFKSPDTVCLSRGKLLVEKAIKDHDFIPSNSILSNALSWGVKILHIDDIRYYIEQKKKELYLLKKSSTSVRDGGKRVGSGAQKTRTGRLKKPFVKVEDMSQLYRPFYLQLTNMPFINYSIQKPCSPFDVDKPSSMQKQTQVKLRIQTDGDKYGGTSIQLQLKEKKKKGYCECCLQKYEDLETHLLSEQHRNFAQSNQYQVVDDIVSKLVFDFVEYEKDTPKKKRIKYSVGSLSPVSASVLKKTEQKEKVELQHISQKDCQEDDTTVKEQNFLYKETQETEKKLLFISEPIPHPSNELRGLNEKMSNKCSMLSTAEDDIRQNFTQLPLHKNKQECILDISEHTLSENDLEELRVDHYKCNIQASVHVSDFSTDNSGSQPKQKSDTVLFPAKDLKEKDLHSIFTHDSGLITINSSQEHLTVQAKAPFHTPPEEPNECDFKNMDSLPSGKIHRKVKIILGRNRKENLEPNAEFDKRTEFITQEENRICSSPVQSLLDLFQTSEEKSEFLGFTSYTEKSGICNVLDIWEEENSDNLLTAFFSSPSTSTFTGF
- MEASUREMENT_PROTOCOL: Cdc7 enzyme inhibition assay ([33P]ATP, biotinylated peptide substrate, FlashPlate)
- Assay type: biochemical

Please supply Ki for each of the following items, keeping them in order.
1. Clc1cc(-c2c[nH]c3ncccc23)cc(N2CCCCC2)n1
2. Clc1cc(-c2c[nH]c3ncccc23)cc(NCC2CCCOC2)n1 (stereo not shown)
3. OC1CCCCC1Nc1cc(-c2c[nH]c3ncccc23)cc(Cl)n1 (stereo not shown)
4. Clc1cc(-c2c[nH]c3ncccc23)cc(NC2CCCCC2)n1

Given back:
1. 10 to 100 nM
2. 10 to 100 nM
3. < 10 nM
4. < 10 nM

---

- MEASUREMENT_TARGET: Cdc7 (BEV coexpressed huCDC7/DBF4) (Homo sapiens)
- Construct: made in house; host or cells: BEV (baculovirus expression vector) co-expression; insect cells are implied but no cell line is named
- MEASUREMENT_PROTOCOL: Cdc7 enzyme inhibition assay ([33P]ATP, biotinylated peptide substrate, FlashPlate)
- Format: biochemical
READOUT_KIND: Ki

- COMPOUND: "CC(=O)NC1CCC(Nc2cc(-c3c[nH]c4ncccc34)cc(Cl)n2)CC1 (stereo not drawn)"
  Ki: "< 10 nM"
- COMPOUND: "COC1CCCCC1Nc1cc(-c2c[nH]c3ncccc23)cc(Cl)n1 (stereo not drawn)"
  Ki: "10 to 100 nM"
- COMPOUND: "O[C@H]1CC[C@H](Nc2nc(Cl)cc(-c3c[nH]c4ncccc34)n2)CC1"
  Ki: "< 10 nM"
- COMPOUND: "NC1CCCCC1Nc1cc(-c2c[nH]c3ncccc23)cc(Cl)n1 (stereo not drawn)"
  Ki: "< 10 nM"
- COMPOUND: "Clc1cc(-c2c[nH]c3ncccc23)nc(NCc2ccccc2)n1"
  Ki: "10 to 100 nM"
- COMPOUND: "Clc1cc(-c2c[nH]c3ncccc23)cc(NCc2cccnc2Oc2cccnc2)n1"
  Ki: "10 to 100 nM"
- COMPOUND: "COC1CCC(Nc2cc(-c3c[nH]c4ncccc34)cc(Cl)n2)CC1 (stereo not drawn)"
  Ki: "10 to 100 nM"
- COMPOUND: "Clc1cc(-c2c[nH]c3ncccc23)cc(NC2CCNCC2)n1"
  Ki: "10 to 100 nM"
- COMPOUND: "FC1(F)CN(c2cc(-c3c[nH]c4ncccc34)cc(Cl)n2)C1"
  Ki: "10 to 100 nM"
- COMPOUND: "CC(O)CNc1cc(-c2c[nH]c3ncccc23)cc(Cl)n1 (stereo not drawn)"
  Ki: "10 to 100 nM"

Could you report Ki for every entry in the following list?
1. CN(Cc1ccccc1)c1cc(-c2c[nH]c3ncccc23)cc(Cl)n1
2. CC(C)(O)CNc1cc(-c2c[nH]c3ncccc23)cc(Cl)n1
3. OC1CCCC(Nc2cc(-c3c[nH]c4ncccc34)cc(Cl)n2)C1 (stereo not drawn)
4. CS(=O)(=O)NC1CCC(Nc2cc(-c3c[nH]c4ncccc34)cc(Cl)n2)CC1 (stereo not drawn)
5. Clc1cc(-c2c[nH]c3ncccc23)cc(NCC2CCNC2)n1 (stereo not drawn)

Given back:
< 10 nM
< 10 nM
< 10 nM
< 10 nM
< 10 nM
